Data credit: paper PMC11562494

Tested on: S. faecalis
REPORTED_ENDPOINT: MIC

Field: example entries. Status: answers known.
{"columns": ["COMPOUND", "TEST_TARGET", "REPORTED_ENDPOINT", "REPORTED_RESULT"],
 "data": [
  ["Cc1c(C(N)=O)c(N)n(N)c(=O)c1C#N", "S. faecalis", "MIC", "7.81 µg/mL"],
  ["CN(C)c1ccc(-c2c(C(N)=S)c(N)n(N)c(=O)c2C#N)cc1", "S. faecalis", "MIC", "7.81 µg/mL"],
  ["N#Cc1c(-c2ccc(Cl)cc2Cl)c(C(N)=O)c(N)n(N)c1=O", "S. faecalis", "MIC", "31.3 µg/mL"],
  ["N#Cc1c(-c2ccc(Cl)cc2Cl)c(C(N)=S)c(N)n(N)c1=O", "S. faecalis", "MIC", "31.3 µg/mL"]
]}

**Q:** Record lookup: for S. faecalis, what MIC belongs to Cc1c(C(N)=S)c(N)n(N)c(=O)c1C#N ?
**A:** 15.6 µg/mL
